system under test: T1, S. venezuelae WhiD (SvWhiD), N-terminally His6-tagged, full length (S. venezuelae, [4Fe-4S] cluster bound as isolated (cluster loading ~90%); cluster-free (apo) form after exposure to O2; N-terminal methionine cleaved)
T1 construct: WhiD of Streptomyces venezuelae, Wbl family [4Fe-4S] protein; codon-optimized gene in pET28a (NdeI/HindIII); His-tagged protein 15,923 Da by LC-MS (predicted 15,924 Da without the N-terminal methionine); The holo ([4Fe-4S]) and apo (cluster-free) forms have the same polypeptide and are kept as one molecule; The assay and the 'only:' limit tell which form was tested; The preparation holds ~10% …
protocol description: native MS; nondenaturing ESI-MS titration; SvWhiD 3 μM with σ^HrdB4 0.75-21 μM, I151A FNR (3 μM) as internal standard, 250 mM ammonium acetate, pH 7.2; fractional saturation against free σ^HrdB4 fitted with a simple binding isotherm
measurement context: both partners purified
readout name: pKd
Remember the convention: pKd equals -log10 of concentration in molar.

pKd for Domain 4 of the S. venezuelae principal sigma factor σ^HrdB (σ^HrdB4), N-terminally His6-tagged (domain or fragment) PADAVSFTLLQEQLHSVLDTLSEREAGVVSMRFGLTDGQPKTLDEIGKVYGVTRERIRQIESKTMSKLRHPSRSQVLRDYLD is 6.13
